Where these numbers come from: patent US20050054629A1

Tested on: H460 lung carcinoma
Experiment: Cytotoxicity assay (MTT), 6 days
Format: cell-based
Details: Homo sapiens, NCI-H460, 144 h, 6 days of treatment, read-out: Toxicity 6d (IC 50, μM) H460
endpoint_name: IC50 (µM)
Provide the reading as a plain figure in µM.

INSERT INTO assay_data (structure_string, endpoint_name, observed) VALUES
  ('C/C=C/c1oc(CO)cc(=O)c1OCCCCCOc1cccc(Cl)c1', 'IC50', 20),
  ('O=C(NCc1ccccc1)c1cc(=O)c(OCCCCCOc2ccc(Cl)cc2)co1', 'IC50', 10);

The record that follows has no IC50 shown yet.
Query: What IC50 appears in the records for this compound with H460 lung carcinoma? O=c1cc(CO)occ1OCCCCCOc1ccc(Cl)c(Cl)c1
Reply: 15

###

System: cell architecture
Assay: Cell architecture modification, phase contrast
Type: cell-based
Design: key: −: no effect of the compound was observed; +: an effect of the compound was observed
endpoint_name: Cell architecture modification phase contrast

Worked examples follow.
INSERT INTO measurements (structure_string, observed) VALUES
  ('CCCc1c(OCCCCCOc2coc(CO)cc2=O)ccc(Cl)c1Cl', '+'),
  ('C/C=C/c1oc(CO)cc(=O)c1OCCCCCOc1ccc(Cl)c(Cl)c1CCC', '+'),
  ('O=c1cc(CO)occ1OCCCCCOc1cccc(Cl)c1', '+'),
  ('CCCc1c(OCCCCCCOc2coc(CO)cc2=O)ccc(Cl)c1Cl', '−'),
  ('O=c1cc(CO)occ1OCCCCCOc1ccc(Cl)cc1', '+'),
  ('CCCc1ccccc1OCCCCCOc1coc(CO)cc1=O', '+');

Query: What Cell architecture modification phase contrast appears in the records for this compound with cell architecture? O=C(NCc1ccccc1)c1cc(=O)c(OCCCCCOc2ccc(Cl)cc2)co1
Reply: −

Query: Now consider O=c1cc(CO)occ1OCCCCOc1ccc(Cl)c(Cl)c1 .
Reply: −

Query: Now consider CCOc1ccccc1OCCCCCOc1coc(CO)cc1=O .
Reply: −

###

Test system: NIH3T3
Test: Cytoskeleton analysis, actin staining (FITC-phalloidin)
Type: cell-based, mouse
Conditions: 24 h treatment
endpoint_name: Cell architecture modification actin staining (R: ruffles; FC: focal complexes) NIH3T3

Worked examples follow.
INSERT INTO measurements (structure_string, observed) VALUES
  ('C/C=C/c1oc(CO)cc(=O)c1OCCCCCOc1ccc(Cl)c(Cl)c1CCC', 'R-, FC+'),
  ('CCCc1ccccc1OCCCCCOc1coc(CO)cc1=O', 'R-, FC+'),
  ('O=c1cc(CO)occ1OCCCCCOc1cccc(Cl)c1', 'cell destructuration'),
  ('CCCc1c(OCCCCCOc2coc(CO)cc2=O)ccc(Cl)c1Cl', 'R-, FC+'),
  ('O=c1cc(CO)occ1OCCCCCOc1ccc(Cl)cc1', 'cell destructuration');

Query: Consider the compound shown here: O=c1cc(CO)occ1OCCCCCOc1ccc(Cl)c(Cl)c1 What is its recorded Cell architecture modification actin staining (R: ruffles; FC: focal complexes) NIH3T3?
Reply: cell destructuration

###

System: MCF-7 breast carcinoma
Assay: Cytotoxicity assay (MTT), 6 days
Format: cell-based
Conditions: Homo sapiens, MCF7, 144 h, 6 days of treatment, read-out: Toxicity 6d (IC 50, μM) MCF7
Below, each entry is listed alongside its reported IC50.
Provide the reading as a plain figure in µM.

INSERT INTO measurements (compound, observed) VALUES
  ('O=C(O)c1cc(=O)c(OCCCCCOc2ccc(Cl)cc2)co1 [EH17600]', 17.5),
  ('O=C(NCc1ccccc1)c1cc(=O)c(OCCCCCOc2ccc(Cl)cc2)co1 [EH28900]', 20),
  ('CCCc1c(OCCCCCCCOc2coc(CO)cc2=O)ccc(Cl)c1Cl [EH17701]', 15),
  ('O=c1cc(COCc2ccccc2)occ1OCCCCCOc1ccc(Cl)c(Cl)c1 [EH7701]', 17.5),
  ('C/C=C/c1oc(CO)cc(=O)c1OCCCCCOc1ccc(Cl)c(Cl)c1CCC [EH31101]', 25);

Query: Consider the compound shown here: O=c1cc(CO)occ1OCCCCCOc1cccc(Cl)c1 [EH10600] What is its recorded IC50?
Reply: 40

Query: Now consider CCCc1c(OCCCCCOc2coc(CO)cc2=O)ccc(Cl)c1Cl [EH22900] .
Reply: 50

Query: Now consider CCCc1c(OCCCCCCOc2coc(CO)cc2=O)ccc(Cl)c1Cl [EH16701] .
Reply: 15

###

System: HCT116 colon adenocarcinoma
Assay: Cytotoxicity assay (MTT), 6 days
Format: cell-based, human
Settings: 6 days of treatment, read-out: Toxicity 6d (IC 50, μM) HCT116
endpoint_name: IC50 (µM)
Provide the reading as a plain figure in µM.

Worked examples follow.
INSERT INTO measurements (structure_string, endpoint_name, unit_symbol, observed) VALUES
  ('CCCc1c(OCCCCCCOc2coc(CO)cc2=O)ccc(Cl)c1Cl', 'IC50', 'µM', 8.5),
  ('CCCc1cc(Cl)c(Cl)cc1OCCCCCOc1coc(CO)cc1=O', 'IC50', 'µM', 8),
  ('O=C(NCc1ccccc1)c1cc(=O)c(OCCCCCOc2ccc(Cl)cc2)co1', 'IC50', 'µM', 25),
  ('O=c1cc(COCc2ccccc2)occ1OCCCCCOc1ccc(Cl)c(Cl)c1', 'IC50', 'µM', 7.5);

The record that follows has no IC50 shown yet.
Query: Consider the molecule shown here: CCCc1c(OCCCCCOc2coc(CO)cc2=O)ccc(Cl)c1Cl What is its recorded IC50?
Reply: 10

###

Tested on: MDA-MB-231 cells
Assay: Matrigel invasion assay (Boyden chamber)
Assay type: cell-based, human
Settings: MDA-MB-231, Boyden chamber, matrigel
Description: Chemoinvasion assay was performed in Boyden chamber as described by Albini et al (Cancer Res, 1987) with some modifications. Polycarbonate membranes with 8 μm pores were coated with matrigel (125 μg/cm^2) at room temperature for 48 h. […] One day after seeding, 10^6 MDA-MB-231 cells were treated overnight with different concentrations of compounds (1, 10, 17.5, 25 and 50 μM). […] Cells on the underside of the filters were visualised and counted under light microscope.
endpoint_name: Invasion

Worked examples follow.
INSERT INTO assay_data (compound, target_of_assay, observed) VALUES
  ('C/C=C/c1oc(CO)cc(=O)c1OCCCCCOc1ccccc1CCC [EH9301]', 'MDA-MB-231 cells', 'No effect'),
  ('CCOc1ccccc1OCCCCCOc1coc(CO)cc1=O [EH18601]', 'MDA-MB-231 cells', 'No effect'),
  ('CCCc1ccccc1OCCCCCOc1coc(CO)cc1=O [EH18900]', 'MDA-MB-231 cells', 'Increase'),
  ('C/C=C/c1oc(CO)cc(=O)c1OCCCCCOc1ccc(Cl)c(Cl)c1CCC [EH31101]', 'MDA-MB-231 cells', 'Increase'),
  ('CCCc1c(OCCCCCOc2coc(CO)cc2=O)ccc(Cl)c1Cl [EH22900]', 'MDA-MB-231 cells', 'Decrease'),
  ('O=c1cc(COCc2ccccc2)occ1OCCCCCOc1ccc(Cl)c(Cl)c1 [EH7701]', 'MDA-MB-231 cells', 'No effect'),
  ('CCCc1c(OCCCCCCOc2coc(CO)cc2=O)ccc(Cl)c1Cl [EH16701]', 'MDA-MB-231 cells', 'No effect');

Query: What Invasion appears in the records for this compound with MDA-MB-231 cells? CCCc1cc(Cl)c(Cl)cc1OCCCCCOc1coc(CO)cc1=O [EH30701]
Reply: Decrease

###

Below, each entry is listed alongside its reported melting point.

Worked examples follow.
INSERT INTO assay_data (structure_string, endpoint_name, observed) VALUES
  ('O=C(Nc1ccc(Cl)cc1)OCc1cc(=O)c(OCCCCCn2ccc3ccccc32)co1', 'melting point', '170 to 171 °C'),
  ('C=CCc1c(Cl)cc(Cl)cc1OCCCCCOc1coc(CO)cc1=O', 'melting point', '59 to 61 °C'),
  ('C/C=C/c1oc(CO)cc(=O)c1OCCCCCOc1cc(Cl)cc(Cl)c1CCC', 'melting point', '91 to 93 °C');

Query: Consider the molecule shown here: C/C=C/c1oc(CO)cc(=O)c1OCCCCCOc1ccc(F)c(F)c1 What is its recorded melting point?
Reply: 86 to 87 °C

Query: Now consider CCCc1c(Cl)cc(Cl)cc1OCCCCCOc1coc(CO)cc1=O .
Reply: 77 to 79 °C

Query: Now consider O=C(OCc1cc(=O)c(OCCCCCn2ccc3ccccc32)co1)c1ccoc1 .
Reply: 103 to 105 °C (dec.)

Query: Now consider C/C=C/c1oc(CO)cc(=O)c1OCCCCCOc1cc(C(F)(F)F)cc(C(F)(F)F)c1 .
Reply: 90 to 92 °C

Query: Now consider CCNC(=O)OCc1cc(=O)c(OCCCCCn2ccc3ccccc32)co1 .
Reply: 81 to 83 °C

Query: Now consider O=c1cc(CO)occ1OCCCCCOc1ccc(Cl)cc1 .
Reply: 95 to 97 °C

Query: Now consider C=CCc1cc(Cl)ccc1OCCCCCOc1coc(CO)cc1=O .
Reply: 98 to 100 °C

Query: Now consider O=C(Nc1ccccc1)OCc1cc(=O)c(OCCCCCn2ccc3ccccc32)co1 .
Reply: 150 °C (dec.)

Query: Now consider O=C(OCc1cc(=O)c(OCCCCCn2ccc3ccccc32)co1)C1CCCCC1 .
Reply: 62 to 66 °C

Query: Now consider C/C=C/c1oc(CO)cc(=O)c1OCCCCCOc1ccc(C#N)c(F)c1 .
Reply: 123 to 125 °C

Query: Now consider CCCc1cc(Cl)ccc1OCCCCCOc1coc(CO)cc1=O .
Reply: 92 to 94 °C

Query: Now consider O=C(OCc1cc(=O)c(OCCCCCn2ccc3ccccc32)co1)c1ccc(Cl)cc1 .
Reply: 215 to 220 °C

Query: Now consider O=C(OCc1cc(=O)c(OCCCCCn2ccc3ccccc32)co1)c1ccccc1 .
Reply: 71 to 73 °C
